Where these numbers come from: ChEMBL document CHEMBL3882241

target: Serum amyloid P-component (Homo sapiens) (UniProt P02743); experiment: Inhibition of calcium dependent [125I]serum amyloid P-component (unknown origin) binding to immobilized chicken erythrocyte native long chromatin at 2 mM incubated for 2 hrs by gamma counting relative to control
Sequence (P02743 whole entry): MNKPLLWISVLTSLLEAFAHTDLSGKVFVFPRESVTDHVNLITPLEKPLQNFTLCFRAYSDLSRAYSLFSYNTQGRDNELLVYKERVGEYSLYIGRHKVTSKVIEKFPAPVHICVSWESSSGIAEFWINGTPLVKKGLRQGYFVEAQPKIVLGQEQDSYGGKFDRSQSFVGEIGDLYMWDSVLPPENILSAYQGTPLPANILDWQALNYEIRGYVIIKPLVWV
measurement.type: inhibition (%)
Lab book: enter the figure in %, no units written.

**Q:** Return inhibition measured with Serum amyloid P-component (Homo sapiens) (UniProt P02743) given this compound: O=C(O)[C@H]1CCCN1C(=O)Cc1ccc(CC(=O)N2CCC[C@@H]2C(=O)O)c2ccccc12
**A:** 100

**Q:** Form field - read-out: inhibition; system: Serum amyloid P-component (Homo sapiens) (UniProt P02743); submitted item: O=C(O)[C@H]1CCCN1C(=O)[C@H]1CC[C@@H](C(=O)N2CCC[C@@H]2C(=O)O)CC1
**A:** 100

**Q:** For the record Cc1c(OCC(=O)N2CCC[C@@H]2C(=O)O)cccc1OCC(=O)N1CCC[C@@H]1C(=O)O , what value of inhibition is listed for Serum amyloid P-component (Homo sapiens) (UniProt P02743)?
**A:** 98

**Q:** Form field: inhibition recorded for O=C(O)[C@H]1CCCN1C(=O)COc1ccc(OCC(=O)N2CCC[C@@H]2C(=O)O)cc1 with Serum amyloid P-component (Homo sapiens) (UniProt P02743) (enter value)
**A:** 91

**Q:** API: value(readout= inhibition, system= Serum amyloid P-component (Homo sapiens) (UniProt P02743), query= O=C(O)[C@H]1CCCN1C(=O)COc1ccccc1OCC(=O)N1CCC[C@@H]1C(=O)O )
**A:** 96

**Q:** What measured inhibition is associated with O=C(O)[C@H]1CCCN1C(=O)CCCCC(=O)N1CCC[C@@H]1C(=O)O on Serum amyloid P-component (Homo sapiens) (UniProt P02743)?
**A:** 93

**Q:** Report inhibition for O=C(O)[C@H]1CCCN1C(=O)Cc1cc(O)c(CC(=O)N2CCC[C@@H]2C(=O)O)cc1O tested on Serum amyloid P-component (Homo sapiens) (UniProt P02743).
**A:** 97

----------
Kindly supply the reported inhibition values for the records listed here.
target: Serum amyloid P-component (Homo sapiens) (UniProt P02743); experiment: Inhibition of calcium dependent [125I]serum amyloid P-component (unknown origin) binding to immobilized chicken erythrocyte native long chromatin at 20 uM incubated for 2 hrs by gamma counting relative to control
Report the figure in % without appending any unit label.

**Q:** Which inhibition is listed for O=C(O)[C@H]1CCCN1C(=O)COc1cccc2c(OCC(=O)N3CCC[C@@H]3C(=O)O)cccc12 ?
**A:** 74

**Q:** Consider the molecule COc1cccc(OCC(=O)N2CCC[C@@H]2C(=O)O)c1OCC(=O)N1CCC[C@@H]1C(=O)O and give its measured inhibition.
**A:** 75

**Q:** Need inhibition, item C[N+](C)(C)CCOP(=O)([O-])O
**A:** 0

**Q:** Return reported inhibition; argument: O=C(O)[C@H]1CCCN1C(=O)Cc1ccc(CC(=O)N2CCC[C@@H]2C(=O)O)c2ccccc12
**A:** 77

**Q:** Which inhibition reading was recorded for the molecule O=C(O)[C@H]1CCCN1C(=O)Cc1cccc(CC(=O)N2CCC[C@@H]2C(=O)O)c1 ?
**A:** 56

**Q:** // returns reported inhibition for input O=C(O)[C@H]1CCCN1C(=O)COc1ccccc1OCC(=O)N1CCC[C@@H]1C(=O)O
**A:** 77

**Q:** // query inhibition value for entry O=C(O)[C@H]1CCCN1C(=O)COc1ccc(OCC(=O)N2CCC[C@@H]2C(=O)O)cc1
**A:** 56

**Q:** Give the measured inhibition of Cc1c(OCC(=O)N2CCC[C@@H]2C(=O)O)cccc1OCC(=O)N1CCC[C@@H]1C(=O)O .
**A:** 65

**Q:** I am curious: what inhibition value has been reported for O=C(O)[C@H]1CCCN1C(=O)CCCCC(=O)N1CCC[C@@H]1C(=O)O ?
**A:** 69

----------
target: Serum amyloid P-component (Homo sapiens) (UniProt P02743); assay: Inhibition of calcium dependent [125I]serum amyloid P-component (unknown origin) binding to immobilized Neisseria meningitidis at 2 mM incubated for 2 hrs by fluorescence/electron microscopy relative to control
measurement.type: inhibition (%)
Your answer is read as %, so omit the unit and give the number.

**Q:** Missing value: inhibition, Serum amyloid P-component (Homo sapiens) (UniProt P02743), entry O=C(O)[C@H]1CCCN1C(=O)Cc1cc(O)c(CC(=O)N2CCC[C@@H]2C(=O)O)cc1O . Fill in?
**A:** 100

**Q:** inhibition of O=C(O)[C@H]1CCCN1C(=O)CCCCC(=O)N1CCC[C@@H]1C(=O)O on Serum amyloid P-component (Homo sapiens) (UniProt P02743)?
**A:** 100

**Q:** Request - read-out inhibition | tested on Serum amyloid P-component (Homo sapiens) (UniProt P02743) | compound Cc1c(OCC(=O)N2CCC[C@@H]2C(=O)O)cccc1OCC(=O)N1CCC[C@@H]1C(=O)O
**A:** 100

**Q:** Form: Entry = O=C(O)[C@H]1CCCN1C(=O)COc1ccc(OCC(=O)N2CCC[C@@H]2C(=O)O)cc1 | System = Serum amyloid P-component (Homo sapiens) (UniProt P02743) | inhibition = ____
**A:** 100

**Q:** Notebook entry, Serum amyloid P-component (Homo sapiens) (UniProt P02743) assay: inhibition of O=C(O)[C@H]1CCCN1C(=O)COc1cccc2c(OCC(=O)N3CCC[C@@H]3C(=O)O)cccc12 = ?
**A:** 100

**Q:** Give recorded inhibition with Serum amyloid P-component (Homo sapiens) (UniProt P02743) for the following compound: O=C(O)[C@H]1CCCN1C(=O)Cc1cccc(CC(=O)N2CCC[C@@H]2C(=O)O)c1
**A:** 100

**Q:** Entry O=C(O)[C@H]1CCCN1C(=O)Cc1ccc(CC(=O)N2CCC[C@@H]2C(=O)O)c2ccccc12 , system Serum amyloid P-component (Homo sapiens) (UniProt P02743): what inhibition was measured?
**A:** 100

**Q:** Write down the reported inhibition of O=C(O)[C@H]1CCCN1C(=O)Cc1ccc(CC(=O)N2CCC[C@@H]2C(=O)O)cc1 , test system: Serum amyloid P-component (Homo sapiens) (UniProt P02743).
**A:** 100

**Q:** Lab note: need inhibition with Serum amyloid P-component (Homo sapiens) (UniProt P02743) for entry NCCOP(=O)(O)O , please look it up.
**A:** 95

**Q:** GET /values?readout=inhibition&system=Serum amyloid P-component (Homo sapiens) (UniProt P02743)&item= COc1cccc(OCC(=O)N2CCC[C@@H]2C(=O)O)c1OCC(=O)N1CCC[C@@H]1C(=O)O
**A:** 100

**Q:** Param readout= inhibition; system= Serum amyloid P-component (Homo sapiens) (UniProt P02743); entry= C[N+](C)(C)CCOP(=O)([O-])O ; returns value.
**A:** 24

**Q:** API: value(readout= inhibition, system= Serum amyloid P-component (Homo sapiens) (UniProt P02743), query= O=C(O)[C@H]1CCCN1C(=O)[C@H]1CC[C@@H](C(=O)N2CCC[C@@H]2C(=O)O)CC1 )
**A:** 100

**Q:** Could you share what inhibition was measured for O=C(O)[C@H]1CCCN1C(=O)COc1ccccc1OCC(=O)N1CCC[C@@H]1C(=O)O , tested on Serum amyloid P-component (Homo sapiens) (UniProt P02743)?
**A:** 100

----------
molecular target: Serum amyloid P-component (Homo sapiens); assay: Inhibition of calcium dependent [125I]serum amyloid P-component (unknown origin) binding to immobilized Neisseria meningitidis at 20 uM incubated for 2 hrs by fluorescence/electron microscopy relative to control
Response key: met means inhibition >= 70%; not met means inhibition < 70%.

**Q:** Exam item: decide whether the reported inhibition for O=C(O)[C@H]1CCCN1C(=O)COc1ccccc1OCC(=O)N1CCC[C@@H]1C(=O)O is at least 70%.
**A:** met

**Q:** Test whether the compound C[N+](C)(C)CCOP(=O)([O-])O records inhibition of 70% or higher.
**A:** not met

**Q:** Entry O=C(O)[C@H]1CCCN1C(=O)CCCCC(=O)N1CCC[C@@H]1C(=O)O : is its inhibition no less than 70%?
**A:** met

**Q:** Please tell me: is the compound C[C@H](CS)C(=O)N1CCC[C@@H]1C(=O)O at or over 70% in terms of inhibition?
**A:** not met

**Q:** State whether the measured inhibition reaches 70%, counting equality as reaching it, for O=C(O)[C@H]1CCCN1C(=O)Cc1cccc(CC(=O)N2CCC[C@@H]2C(=O)O)c1
**A:** met

**Q:** Could you tell me if the measured inhibition of O=C(O)[C@H]1CCCN1C(=O)Cc1ccc(CC(=O)N2CCC[C@@H]2C(=O)O)c2ccccc12 reaches 70% or more?
**A:** met

**Q:** Could you tell me if the measured inhibition of O=C(O)[C@H]1CCCN1C(=O)[C@H]1CC[C@@H](C(=O)N2CCC[C@@H]2C(=O)O)CC1 reaches 70% or more?
**A:** met

**Q:** Is reported inhibition greater than or equal to 70% here: O=C(O)[C@H]1CCCN1C(=O)COc1cccc2c(OCC(=O)N3CCC[C@@H]3C(=O)O)cccc12
**A:** met

**Q:** Check if inhibition >= 70% (inclusive). Item: O=C(O)[C@H]1CCCN1C(=O)Cc1ccc(CC(=O)N2CCC[C@@H]2C(=O)O)cc1
**A:** met
